Assay: Selectivity index, ratio of EC50 for african green monkey Vero cells to MIC for Mycobacterium tuberculosis
Format: functional
readout.type: Selectivity Index

Given the compound CCOC(=O)c1c(C)[n+]([O-])c2cc(Cl)c(Cl)cc2[n+]1[O-] , what is its reported Selectivity Index?
>20

---

Assay: Cmax in C57BL/6 mouse serum after 15 to 30 mins at 100 to 200 mg/kg, po
Format: ADME, organism-based
Parameters: dose 100-200 mg/kg, route oral
readout.type: Cmax (ng/mL)
Please state the figure in ng/mL; there is no need to write the unit.

Given the compound CCOC(=O)c1c(C)[n+]([O-])c2ccc(Cl)cc2[n+]1[O-] , what is its reported Cmax?
5000

---

Documented log10cfu across a set of compounds
Tested on: Mycobacterium tuberculosis
Assay: Antibacterial activity against Mycobacterium tuberculosis Erdman infected in gamma interferon gene knockout C57BL/6 mouse assessed as bacterial load in spleen at 300 mg/kg, po administered 18 days postinfection for 9 days measured on day 24 (Rvb= 6.57+/-0.17 log CFU)
Type: functional
Quick one: just the number, no unit, thanks!

| chemical.structure | log10cfu |
| --- | --- |
| Cc1ccc2c(c1)[n+]([O-])c(C(=O)OCc1ccccc1)c(C)[n+]2[O-] | 6.63 |
| Cc1c(C(=O)OCc2ccccc2)[n+]([O-])c2ccccc2[n+]1[O-] | 6.96 |
| COCCOC(=O)c1c(C)[n+]([O-])c2cc(Cl)c(Cl)cc2[n+]1[O-] | 7.18 |

Given the compound CCOC(=O)c1c(C)[n+]([O-])c2ccc(Cl)cc2[n+]1[O-] , what is its reported log10cfu?
3.95

Given the compound Cc1c(C(=O)OCc2ccccc2)[n+]([O-])c2cc(Cl)ccc2[n+]1[O-] , what is its reported log10cfu?
6.62

Given the compound CCOC(=O)c1c(C)[n+]([O-])c2cc(Cl)c(Cl)cc2[n+]1[O-] , what is its reported log10cfu?
6.75

Given the compound Cc1c(C(=O)OCc2ccccc2)[n+]([O-])c2cc(Cl)c(Cl)cc2[n+]1[O-] , what is its reported log10cfu?
7.17

---

Assay: Selectivity index, ratio of EC50 for african green monkey Vero cells to MIC for Mycobacterium tuberculosis
Type: functional
readout.type: Selectivity Index
Quick one: just the number, no unit, thanks!

Below, 3 molecules whose answers are already recorded.
| chemical.structure | readout.number |
| --- | --- |
| COCCOC(=O)c1c(C)[n+]([O-])c2cc(Cl)c(Cl)cc2[n+]1[O-] | 11.54 |
| Cc1c(C(=O)OCc2ccccc2)[n+]([O-])c2cc(Cl)c(Cl)cc2[n+]1[O-] | 29 |
| CCOC(=O)c1c(C)[n+]([O-])c2ccccc2[n+]1[O-] | 30.13 |

Given the molecule Cc1c(C(=O)OCc2ccccc2)[n+]([O-])c2cc(Cl)ccc2[n+]1[O-] , what is its reported Selectivity Index?
76.9

Given the molecule Cc1c(C(=O)OCc2ccccc2)[n+]([O-])c2ccccc2[n+]1[O-] , what is its reported Selectivity Index?
470

Given the molecule Cc1ccc2c(c1)[n+]([O-])c(C(=O)OCc1ccccc1)c(C)[n+]2[O-] , what is its reported Selectivity Index?
143.7

---

Documented Selectivity Index across a set of molecules
Assay: Selectivity index, ratio of EC50 for african green monkey Vero cells to MIC for Mycobacterium tuberculosis
Format: functional

Below, 2 molecules whose answers are already recorded.
| chemical.structure | readout.type | result |
| --- | --- | --- |
| CCOC(=O)c1c(C)[n+]([O-])c2ccc(C)cc2[n+]1[O-] | Selectivity Index | >40.06 |
| CCOC(=O)c1c(C)[n+]([O-])c2ccc(Cl)cc2[n+]1[O-] | Selectivity Index | >50 |

Given the molecule CCOC(=O)c1c(C)[n+]([O-])c2cc(C)c(C)cc2[n+]1[O-] , what is its reported Selectivity Index?
>10

Given the molecule COC(=O)c1c(C)[n+]([O-])c2cc(C)c(C)cc2[n+]1[O-] , what is its reported Selectivity Index?
>20

Given the molecule COC(=O)c1c(C)[n+]([O-])c2ccc(C)cc2[n+]1[O-] , what is its reported Selectivity Index?
>40.06
